This collection of values is drawn from the emibetuzumab library of Makowski et al. (2022).

B1: VH:VL chains; a variant is named by its letters at X, in order (parent)
chain 1: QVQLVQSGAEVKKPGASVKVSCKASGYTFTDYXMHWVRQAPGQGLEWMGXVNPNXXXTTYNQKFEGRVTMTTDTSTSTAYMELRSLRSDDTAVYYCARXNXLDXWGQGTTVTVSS
chain 2: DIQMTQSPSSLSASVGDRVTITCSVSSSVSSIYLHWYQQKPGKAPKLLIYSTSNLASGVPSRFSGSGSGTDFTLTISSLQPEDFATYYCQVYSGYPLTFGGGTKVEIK

# Variants of: B1
# testDetails: yeast display scFab, FACS + sequencing
measure: non-specific binding call

Answered examples (10):
SKAGGVGA = binds
DAKEGSSA = no binding
SKGRSDVF = no binding
YRRGSAWA = binds
ARAAGDWV = no binding
YRGRGALF = binds
FRGGGFVV = binds
VEEEGSAD = no binding
VKGGGFGA = binds
VKAGDAAV = no binding

Query :: Which non-specific binding call is listed for DTAESDLD ?
Result :: no binding

Query :: Try the variant VTGEDDWY
Result :: no binding

Query :: Request: FRAGGAVD
Result :: binds

Query :: Proceed to YRGRSAWV
Result :: binds

Query :: # repeat for VRAGADSV
Result :: no binding

Query :: VAGTGAVV , same question.
Result :: no binding

Query :: For SEARSSSY then?
Result :: no binding

Query :: What about this variant? DREGGVSD
Result :: binds

Query :: FAKEGDGD , same question.
Result :: no binding

Query :: Please do the same for DEGGTDWD as well.
Result :: no binding

Query :: What would you report for YRRRGDLD ?
Result :: binds

Query :: Then YKGGGSAV ?
Result :: binds
